- ASSAY_TEXT: Lipophilicity, logD of the compound at pH 7.4
- Assay type: physicochemical
- CONDITION_INFO: buffer
Classification field: enter fulfilled for logD values not below 3, not fulfilled for values below it.

# count of solved cases: 3
{"columns": ["SUBSTANCE_SMILES", "LABEL"],
 "data": [
  ["COc1cc(OC)cc(C(=O)Nc2ccc(-c3cccnc3)cc2F)c1", "not fulfilled"],
  ["COc1cc(C(=O)Nc2ccc(-c3cc(F)cc(F)c3)cc2NC(=O)[C@@H](C)NC(C)=O)cc(OC)c1OC", "not fulfilled"],
  ["COc1cc(C(=O)Nc2ccc(-c3ccncc3)cc2F)cc(OC)c1OC", "not fulfilled"]
]}

Task item: Determine whether measured logD meets or exceeds 3 for `COc1ccc(C(=O)Nc2ccc(-c3cccnc3)cc2F)c(OC)c1OC`
Reply: fulfilled

Task item: Is it the case that `COc1cc(C(=O)Nc2ccc(-c3cccnc3)cc2F)cc(OC)c1OC` has logD reaching or exceeding 3?
Reply: not fulfilled

###

- ASSAY_TEXT: Efflux ratio, ratio of permeability from basolateral to apical side over apical to basolateral side in human Caco2 cells by UV spectroscopy
- Assay type: ADME, cell-based
- CONDITION_INFO: Caco-2
Documented efflux ratio across a set of compounds
In your answer, state the number alone without any accompanying words.

{"columns": ["SUBSTANCE_SMILES", "REPORTED_PROPERTY", "OBSERVED_MEASUREMENT"],
 "data": [
  ["COc1cc(OC)c(C(=O)Nc2ccc(-c3cccnc3)cc2F)cc1OC", "efflux ratio", 14],
  ["COc1cc(OC)c(C(=O)Nc2ccc(-c3cc(F)cc(F)c3)cn2)cc1OC", "efflux ratio", 10.7],
  ["COc1ccc(C(=O)Nc2ccc(-c3cccnc3)cc2F)c(OC)c1OC", "efflux ratio", 6.7]
]}

Now look at this one.
Task item: Look up efflux ratio for this compound: `COc1cc(OC)c(C(=O)Nc2ccc(-c3ccncc3)cc2F)cc1OC`
Reply: 8.1

###

- ASSAY_TEXT: Partition coefficient, logK of the compound using methanol/pH 7.4 phosphate buffer by RP-chromatography
- Format: physicochemical
REPORTED_PROPERTY: log K
Lab note: jot down the number only; don't add units.

Look over these answered cases.
{"columns": ["SUBSTANCE_SMILES", "OBSERVED_MEASUREMENT"],
 "data": [
  ["O=C(Nc1ccc(-c2cccnc2)cc1F)c1ccccc1", -0.38],
  ["COc1cc(C(=O)Nc2ccc(-c3cc(F)cc(F)c3)cc2N)cc(OC)c1OC", -0.09],
  ["COc1ccc(C(=O)Nc2ccc(-c3cccnc3)cc2F)cc1OC", -0.45]
]}

Task item: # query: log K of entry `COc1ccc(S(=O)(=O)Nc2ccc(-c3cccnc3)cc2F)cc1OC`
Reply: -0.88

Task item: Name the reported log K value associated with the molecule `COc1cc(C(=O)Nc2ccc(-c3ccncc3)cc2F)cc(OC)c1OC`
Reply: -0.31

Task item: Suppose we examine the molecule `COc1cc(OC)c(C(=O)Nc2ccc(-c3cccnc3)cn2)cc1OC` ; what log K value has been reported?
Reply: -0.12

Task item: Name the recorded log K for `COc1ccc(-c2ccc(NC(=O)c3cc(OC)c(OC)cc3OC)c(F)c2)cc1` .
Reply: 0.67

Task item: If you can, please state the reported log K value of `COc1ccc(C(=O)Nc2ccc(-c3cccnc3)cc2F)c(OC)c1OC` .
Reply: 0.37

Task item: Would you kindly share the measured log K for `COc1cc(OC)c(C(=O)N(C)c2ccc(-c3cccnc3)cc2F)cc1OC` ?
Reply: -0.59

Task item: Name the recorded log K for `COc1cc(OC)c(C(=O)Nc2ccc(-c3cc(F)cc(F)c3)cn2)cc1OC` .
Reply: 0.47

Task item: Query (molecule): `COc1ccc(C(=O)Nc2ccc(-c3cccnc3)cc2F)cc1` ; field requested: log K
Reply: -0.32

Task item: Please look up its log K: `COc1cc(C(=O)Nc2ccc(-c3cccnc3)cc2F)cc(OC)c1OC`
Reply: -0.36
